Recorded IC50 of inhibition of IL-5-induced proliferation of TF1 cells by entry
# TESTED ON: T1, Human IL-5 amino acid sequence with his tag (rhIL-5-his) (human, UniProt P05113 20-134)
# T1 sequence: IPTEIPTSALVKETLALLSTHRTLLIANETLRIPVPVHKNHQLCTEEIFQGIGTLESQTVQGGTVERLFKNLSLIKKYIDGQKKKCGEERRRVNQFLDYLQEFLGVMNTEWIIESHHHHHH
# ASSAY PROCEDURE: cell-based or functional assay
The figure you give is taken to be in nM; do not add the unit.

Solved entries (count: 5):
1. h1705-005 (antibody, human IgG1, kappa, V domains shown) VH: EVQLVESGGGLVQPGGSLRLSCAASGFTFSHYYMAWVRQAPGKGLEWVTSISYEGDITYYGDSVKGRFTISRDNSKNTLYLQMNSLRAEDTATYYCASQTLRESFDYWGQGTLVTVSS VL: DIQMTQSPSSVSASVGDRVTITCRASQDIANYLSWYQQKPGKAPKLLIYGTSNLEVGVPSRFSGSGSGTDFTLTISSLQPEDFATYYCLQDKEFPRTFGGGTKVEIKR	0.3
2. h1773-007 (antibody, human IgG1, kappa, V domains shown) VH: EVQLVESGGGLVQPGGSLKLSCAASGFTISNTYIHWVKQASGKGLEWIGRIDPAVGDTKHGPKFQGRFTISADDSKNTAYLQMNSLKTEDTAVYYCFRYGIYPDHWGQGTLVTVSS VL: DIQLTQSPSSLSASVGDRVTITCSASSSVNYIYWYQQKPGKSPKPWIYLTATLASGVPSRFSGSGSGTDFTLTISSLQPEDFATYYCQQWNSYPYTFGGGTKVEIKR	0.38
3. Hu39D10 (antibody, human IgG4 S228P, kappa, V domains shown) VH: EVQLVESGGGLVQPGGSLRLSCAVSGLSLTSNSVNWIRQAPGKGLEWVGLIWSNGDTDYNSAIKSRFTISRDTSKSTVYLQMNSLRAEDTAVYYCAREYYGYFDYWGQGTLVTVSS VL: DIQMTQSPSSLSASVGDRVTITCLASEGISSYLAWYQQKPGKAPKLLIYGANSLQTGVPSRFSGSGSATDYTLTISSLQPEDFATYYCQQSYKFPNTFGQGTKVEVKR	0.3
4. h1706-004 (antibody, human IgG1, kappa, V domains shown) VH: EVQLVESGGGLVQPGGSLRLSCAASGFTFSHYYMAWVRQAPGKGLEWVTSINYEGNSAYYGDSVKGRFTISRDNSKNTLYLQMNSLRAEDTATYYCATETLRESLDYWGQGTMVTVSS VL: DIQMTQSPSSVSASVGDRVTITCRASQDIGNYLSWYQQKPGKAPKLLIYSASNLEVGVPSRFSGSGSGTDFTLTISSLQPEDFATYYCLQHKQFPRTFGGGTKVEIKR	0.3
5. h1706-009 (antibody, human IgG1, kappa, V domains shown) VH: EVQLVESGGGLVQPGGSLRLSCAASGFTFSHYYMAWVRQAPGKGLEWVSSINYEGNSAYYGDSVKGRFTISRDNSKNTLYLQMNSLRAEDTAVYYCATETLRESLDYWGQGTMVTVSS VL: DIQMTQSPSSVSASVGDRVTITCRASQDIGNYLSWYQQKPGKSPKLMIYSASNLEVGVPSRFSGSGSGTDYTLTISSLQPEDFATYFCLQHKQFPRTFGGGTKVEIKR	0.25

Which IC50 of inhibition of IL-5-induced proliferation of TF1 cells reading was recorded for the binder h1705-008 (antibody, human IgG1, kappa, V domains shown) VH: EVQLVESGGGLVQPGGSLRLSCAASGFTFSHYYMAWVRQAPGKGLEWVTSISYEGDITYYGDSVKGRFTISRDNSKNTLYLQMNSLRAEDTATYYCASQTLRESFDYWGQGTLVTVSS VL: DIQMTQSPSSVSASVGDRVTITCRASQDIANYLSWYQQKPGKSPKLLIYGTSNLEVGVPSRFSGSRSGTDFTLTISSLQPEDFATYYCLQDKEFPRTFGGGTKVEIKR ? 0.2

What measured IC50 of inhibition of IL-5-induced proliferation of TF1 cells goes with h1706-006 (antibody, human IgG1, kappa, V domains shown) VH: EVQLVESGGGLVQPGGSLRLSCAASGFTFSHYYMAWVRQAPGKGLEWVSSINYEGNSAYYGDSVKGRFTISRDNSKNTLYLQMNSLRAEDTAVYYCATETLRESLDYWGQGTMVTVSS VL: DIQMTQSPSSVSASVGDRVTITCRASQDIGNYLSWYQQKPGKSPKLLIYSASNLEVGVPSRFSGSGSGTDFTLTISSLQPEDFATYYCLQHKQFPRTFGGGTKVEIKR ? 0.34
